- Organism: Homo sapiens
- assayMethodText: Selectivity for human recombinant adenosine A2B receptor over human recombinant adenosine A1 receptor
Assign label 1 to entries whose Ratio Ki meets or exceeds 20; assign label 0 to the rest.

Please review the following examples before continuing.
CCn1c(=O)c2[nH]c(-c3cnn(Cc4cccc(F)c4)c3)nc2n(C)c1=O	label 1
CCn1c(=O)n(CC(C)C)c(=O)c2[nH]c(-c3cnn(Cc4cccc(F)c4)c3)nc21	label 1
CCn1c(=O)c2nc(-c3cnn(Cc4cccc(F)c4)c3)[nH]c2n(CC)c1=O	label 1
CC(C)Cn1c(=O)c2[nH]c(-c3cnn(Cc4cccc(F)c4)c3)nc2n(C)c1=O	label 0
CCCn1c(=O)c2[nH]c(-c3cnn(Cc4nc(-c5ccc(Cl)cc5)no4)c3)nc2n(CC)c1=O	label 1
CCCn1c(=O)c2[nH]c(-c3cnn(Cc4ccc(C)nc4)c3)nc2n(CC)c1=O	label 1
CCCn1c(=O)c2[nH]c(-c3cnn(Cc4cccnc4)c3)nc2n(CC)c1=O	label 1
CCCn1c(=O)c2[nH]c(-c3cnn(Cc4ccccn4)c3)nc2n(CC)c1=O	label 0
CCCn1c(=O)c2[nH]c(-c3cnn(Cc4cccc(F)c4)c3)nc2n(CCC)c1=O	label 0
CCCn1c(=O)c2[nH]c(-c3cnn(Cc4cccc(F)c4)c3)nc2n(C)c1=O	label 1

Test whether the compound `Cn1c(=O)c2[nH]c(-c3cnn(Cc4cccc(F)c4)c3)nc2n(C)c1=O` records Ratio Ki of 20 or higher.
label 0

Test whether the compound `CCn1c(=O)c2[nH]c(-c3cnn(Cc4cccc(C(F)(F)F)c4)c3)nc2n(C)c1=O` records Ratio Ki of 20 or higher.
label 1

Test whether the compound `CCCn1c(=O)c2[nH]c(-c3cnn(Cc4ccccc4)c3)nc2n(CC)c1=O` records Ratio Ki of 20 or higher.
label 0

Test whether the compound `CCCn1c(=O)c2[nH]c(-c3cnn(Cc4ccc(C(F)(F)F)nc4)c3)nc2n(CC)c1=O` records Ratio Ki of 20 or higher.
label 1

Test whether the compound `CCn1c(=O)n(CC(C)C)c(=O)c2[nH]c(-c3cnn(Cc4ccc(C(F)(F)F)nc4)c3)nc21` records Ratio Ki of 20 or higher.
label 1

Source: ChEMBL document CHEMBL1145545
